Where these numbers come from: the supplement of paper PMC12667976

So I've got a bunch of variants here, and I need their AIRE transcriptional activation functional score values.
B1: library; numbered along this chain (parent)
chain: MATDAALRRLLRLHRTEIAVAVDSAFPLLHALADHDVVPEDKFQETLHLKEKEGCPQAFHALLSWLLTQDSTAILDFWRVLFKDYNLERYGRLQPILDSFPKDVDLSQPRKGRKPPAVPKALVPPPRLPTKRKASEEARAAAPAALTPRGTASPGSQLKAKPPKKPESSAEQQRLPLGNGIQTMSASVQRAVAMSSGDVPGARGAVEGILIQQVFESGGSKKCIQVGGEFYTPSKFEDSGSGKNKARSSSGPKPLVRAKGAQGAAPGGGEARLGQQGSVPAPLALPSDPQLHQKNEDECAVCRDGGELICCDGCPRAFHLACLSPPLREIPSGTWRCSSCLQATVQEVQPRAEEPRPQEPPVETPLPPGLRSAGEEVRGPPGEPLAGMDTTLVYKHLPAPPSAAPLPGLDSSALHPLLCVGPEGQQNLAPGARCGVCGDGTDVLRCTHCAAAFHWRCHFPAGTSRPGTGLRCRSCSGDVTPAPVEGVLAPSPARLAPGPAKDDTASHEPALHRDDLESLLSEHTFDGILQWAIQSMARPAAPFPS

Variants of: B1
experiment description: AIRE transcriptional activation functional score (insulin promoter-GFP; nonsense median 0, synonymous median 1) (normalised score); higher = higher AIRE activity (more reporter activation)
test parameters: with insulin promoter-GFP reporter in HEK293
// keep it numeric: no unit symbol after the value

Name the recorded AIRE transcriptional activation functional score for P360I .
1.13

Would you kindly repeat that for D304L ?
0.299

Would you kindly repeat that for N179Y ?
1.15

Would you kindly repeat that for C322T ?
1.21

Would you kindly repeat that for E136Y ?
1.32

Would you kindly repeat that for R433M ?
0.755

Would you kindly repeat that for A246D ?
0.858

Would you kindly repeat that for I181T ?
0.242

Would you kindly repeat that for P176K ?
1.33

Would you kindly repeat that for L366G ?
0.607

Would you kindly repeat that for E353I ?
1.13
